Measured pEC50, listed per entry.
# tgt: T1, flag-tagged cynomolgus monkey LILRB4 expressed on CHO-K1 cells (cynomolgus monkey)
# T1 construct: whole, on cells; also called cyno LILRB4
# testSummary: FACS, CHO-stable cells expressing cyno LILRB4
Please keep in mind that pEC50 is minus log10 of the molar concentration; only the number is needed.

Look over these answered cases.
binder	measured
H7K3 (antibody, V domains shown, Humanized from rabbit antibody B4-193; also called humanized anti-LILRB4 antibody; WT) VH: EVQLVESGGGLVQPGGSLRLSCAASGFSLSSSYWISWVRQAPGKGLEWIGSIDSGSVGITYYATWVKGRFTISRDNSKNTLYLQMNSLRAEDTAVYYCARHGDNWALDLWGQGTLVTVSS VL: DIQMTQSPSTLSASVGDRVTITCRASQSINSWLAWYQQKPGKAPKLLIYKASTLASGVPSRFSGSGSGTEFTLTISSLQPDDFATYYCQHGYIRGDLDNVFGGGTKVEIK	8.88
H7K3 variant 8, K3m4 (N/Q) (antibody, V domains shown) VH: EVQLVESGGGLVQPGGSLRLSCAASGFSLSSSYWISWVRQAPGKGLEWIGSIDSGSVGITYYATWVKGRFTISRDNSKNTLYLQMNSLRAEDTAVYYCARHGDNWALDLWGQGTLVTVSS VL: DIQMTQSPSTLSASVGDRVTITCRASQSIQSWLAWYQQKPGKAPKLLIYKASTLASGVPSRFSGSGSGTEFTLTISSLQPDDFATYYCQHGYIRGDLDNVFGGGTKVEIK	9.00

Check the records and state pEC50 for H7K3m5 (antibody, V domains shown, Full-length IgG; human IgG1 is used as its isotype control; Only variable regions are tied to the name; Wild type (fucosylated) form unless said otherwise; also called variant 9; K3m5 (N/S)) VH: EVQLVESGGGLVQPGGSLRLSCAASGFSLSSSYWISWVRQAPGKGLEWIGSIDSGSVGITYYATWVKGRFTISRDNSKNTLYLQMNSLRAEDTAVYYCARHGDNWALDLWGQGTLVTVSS VL: DIQMTQSPSTLSASVGDRVTITCRASQSISSWLAWYQQKPGKAPKLLIYKASTLASGVPSRFSGSGSGTEFTLTISSLQPDDFATYYCQHGYIRGDLDNVFGGGTKVEIK
8.95
